Every entry's value here was drawn from PubChem BioAssay AID463173.

Consider the following compounds; for each one, report its survival.
Test system: DeltatarO mutant
procedure.summary: S. aureus survival, RN4220 and DeltatarO strains – OD600, teichoic acid synthesis inhibitors, primary screen (AID 463173)
test.conditions: S. aureus RN4220 wild type/DeltatarO growth, OD600, 18 h, stronger effect = lower value, screened at 18.75 µg/mL (by protocol)
The campaign covered roughly 52,000 compounds. About 4,300 (8.3%) were called active. The sample holds actives, similar compounds and a random draw of the others, so the mix is not that of the screen.

Q: Look up survival for this compound: Cc1c(Cl)cccc1NC(=O)Nc1ccc2snnc2c1
Ans: -4% (active)

Q: Look up survival for this compound: CC1(c2ccc(Cl)cc2)CC(C)(C)N(C(=O)c2ccccc2)c2ccccc21 (stereo not given)
Ans: -4% (active)

Q: Look up survival for this compound: CCOc1cc(CNCCSc2nnnn2C)ccc1OCc1ccc(Cl)cc1Cl
Ans: -6% (active)

Q: Look up survival for this compound: CC1CCN(c2cc3c(cc2F)c(=O)c(S(=O)(=O)c2cccc(Cl)c2)cn3Cc2ccccc2)CC1
Ans: 80% (inactive)

Q: Look up survival for this compound: Cc1cc(C)c(NC(=O)Nc2ccc3snnc3c2)c(C)c1
Ans: 118% (inactive)

Q: Look up survival for this compound: COc1ccc(C(=O)NCCc2sc(-c3cccc(F)c3)nc2C)cc1
Ans: 67% (inactive)

Q: Look up survival for this compound: COc1cccc(N2C(=O)N(CC(=O)NCc3cccc(OC)c3OC)c3ccccc3S2(=O)=O)c1
Ans: 95% (inactive)

Q: Look up survival for this compound: Cc1c(Cl)cccc1NC(=O)c1ccc2snnc2c1
Ans: 126% (inactive)

Q: Look up survival for this compound: COc1cc(CNCCSc2nnnn2C)ccc1OCc1ccc(Cl)cc1Cl
Ans: 30% (active)

Q: Look up survival for this compound: COC(=O)c1ccccc1NC(=O)Cn1c(=O)n(CCCCC(=O)NCc2ccc3c(c2)OCO3)c(=O)c2ccccc21
Ans: 67% (inactive)

###

System: DeltatarO mutant
procedure.summary: S. aureus survival, RN4220 and DeltatarO strains – OD600, teichoic acid synthesis inhibitors, primary screen (AID 463173)
test.conditions: S. aureus RN4220 wild type/DeltatarO growth, OD600, 18 h, stronger effect = lower value, screened at 18.75 µg/mL (by protocol)
About 4,300 (8.3%) of roughly 52,000 compounds were called active. The full list was thinned out, with actives kept by preference.
Binary label based on survival with cut-off 90%: below gives Condition met, not below gives Condition not met.

Q: I'd appreciate it if you could check whether CC1(C)Cc2ccccc2-c2nc(NN)[nH]c(=O)c21 has survival smaller than 90%.
Ans: Condition met

Q: I'd appreciate it if you could check whether CCCCNC(=O)c1cnn2c(C)c(Cc3c(F)cccc3Cl)c(C)nc12 has survival smaller than 90%.
Ans: Condition not met

Q: I'd appreciate it if you could check whether O=C(CSc1ncc2c(n1)-c1ccc(Cl)cc1N(Cc1ccccc1)S2(=O)=O)Nc1ccc(F)c(F)c1 has survival smaller than 90%.
Ans: Condition not met

Q: I'd appreciate it if you could check whether Cc1ccc(N2CCN(C(=O)c3cnn(-c4ccc(C)c(C)c4)c3C3CCNCC3)CC2)c(C)c1 has survival smaller than 90%.
Ans: Condition met

###

System: DeltatarO mutant
procedure.summary: S. aureus survival, RN4220 and DeltatarO strains – OD600, teichoic acid synthesis inhibitors, primary screen (AID 463173)
test.conditions: S. aureus RN4220 wild type/DeltatarO growth, OD600, 18 h, screened at 18.75 µg/mL (by protocol)
Out of some 52,000 compounds screened, about 4,300 (8.3%) were called active. Rule as the data show it: active = survival mostly below about 52% (no sharp cut-off); inactive = mostly above about 56%. The entries come from a sample that favours actives as a whole.
Respond only with the outcome that fits, drawn from label 1 (active), label 0 (inactive)

Q: Field: outcome | Entry: CC(C)c1ccc(OC(=O)c2cc(-c3ccccc3)on2)cc1
Ans: label 0

Q: Field: outcome | Entry: Cc1cccc(OC(=O)c2cc(-c3ccc4c(c3)OCCO4)on2)c1C
Ans: label 1

Q: Field: outcome | Entry: Cc1cccc(OC(=O)c2cc(-c3ccc(Cl)cc3)on2)c1C
Ans: label 0

Q: Field: outcome | Entry: Oc1ccc(Nc2nc(-c3ccc(O)cc3)cs2)cc1
Ans: label 1

Q: Field: outcome | Entry: COc1ccc(-c2cc(C(=O)Nc3c(Cl)cccc3Cl)no2)cc1OC
Ans: label 0

Q: Field: outcome | Entry: COc1ccc(-n2c(=O)[nH]c3cc(C(=O)NCCc4ccccc4)ccc3c2=O)cc1OC
Ans: label 0

Q: Field: outcome | Entry: Cc1ccc(OC(=O)c2cc(-c3ccc(Cl)cc3)on2)c(C)c1
Ans: label 0

Q: Field: outcome | Entry: Cc1ccc(OC(=O)c2cc(-c3ccc4c(c3)OCCO4)on2)c(C)c1
Ans: label 1

Q: Field: outcome | Entry: c1ccc(Nc2nc(-c3ccncc3)cs2)cc1
Ans: label 0

Q: Field: outcome | Entry: COCC(=O)NC1CCN(Cc2nnnn2Cc2ccc3c(c2)OCO3)CC1
Ans: label 0

Q: Field: outcome | Entry: CCc1ccc(CNC(=O)c2cccc(-n3cnc4cccnc43)c2C)cc1
Ans: label 0
